These entries and their values trace back to the CATMoS acute toxicity set (Mansouri et al. 2021).

experiment: rat acute oral toxicity; conditions: in vivo
Measure: log10 LD50 (log10 of the value in mg/kg)
Use the decimal logarithm of LD50 (mg/kg).

CCCCCCCCCCCCNC(=N)N : 2.75
CSc1nnc(C(C)(C)C)c(=O)n1N : 2.51
CC(C)C(=O)c1ccccc1 : 3.29
CCCCC(CC)CO (stereo not drawn) : 3.31
CCCN(CCC)C(=O)SCC : 2.96
NNC(N)=S : 0.96
CCCCCCCCC=CCCCCCCCCN(CCO)CCO : 3.10
Cc1ccc(O)c(C)c1 : 3.36

Task: Find the recorded log10 LD50 belonging to `Cc1cccc(N)c1` and report it.
Output: 2.65

Task: Find the recorded log10 LD50 belonging to `Nc1ccc(Cl)c(Cl)c1` and report it.
Output: 2.72

###

Overview of reported GHS category across a group of compounds:
Assay: GHS categories as the set defines them, by LD50: 1 up to 5, 2 up to 50, 3 up to 300, 4 up to 2000, 5 above 2000 mg/kg
Settings: rat; in vivo; po
Description: […]The data set underlying the modeling effort for this project was initially compiled by NICEATM and U.S. EPA’s CCTE. Briefly, LD50 data were collected from rat acute oral systemic toxicity tests, including limit tests, ranges/confidence intervals, and discrete LD50 values. The full data set included 21,200 LD50 entries for 15,688 substances. […]
No unit in the answer, please; the number alone is enough.

For orientation, consider the following solved cases.
COc1ccccc1N1CCN(/C(N)=N/c2cc(Cl)cc(Cl)c2)CC1 : 4
CCCCCCCCCCCc1ccccc1 : 5
Cc1cc(=O)[nH]c2cc(OCCCN3CCC(Cc4ccccc4)CC3)ccc12 : 4
c1ccc2oc(C3(Cn4ccnc4)OCCO3)cc2c1 : 4
OCc1cncs1 : 5

Task: Find the recorded GHS category belonging to `CC(C)(C)C(=O)OCOC(=O)[C@@H]1N2C(=O)[C@@H](NC(=O)[C@H](N)c3ccccc3)[C@H]2SC1(C)C` and report it.
Output: 5

###

experiment: rat acute oral toxicity; settings: in vivo
Quick rule for you: LD50 under 900 mg/kg gets Yes, anything else gets No.

Some solved cases for reference:
C/C=C/C=O : Yes
CCO[Si](CCCN)(OCC)OCC : No
O=C1c2ccccc2C(=O)N1SC(Cl)(Cl)Cl : No

Task: In the record for `Clc1ccc(C(Cl)Cl)cc1` , is LD50 less than 900 mg/kg?
Output: No

Task: In the record for `Ic1ccccc1` , is LD50 less than 900 mg/kg?
Output: No

Task: In the record for `NNC(=O)c1ccncc1` , is LD50 less than 900 mg/kg?
Output: Yes

Task: In the record for N#CCCC(Br)(C#N)CBr (stereo not given) , is LD50 less than 900 mg/kg?
Output: Yes

Task: In the record for `CC(=O)C(C)C` , is LD50 less than 900 mg/kg?
Output: Yes

Task: In the record for `CCC(C)=NO` , is LD50 less than 900 mg/kg?
Output: No

Task: In the record for `O=C(O)c1ccccc1` , is LD50 less than 900 mg/kg?
Output: No

Task: In the record for `CN(C)C(=O)Nc1ccccc1` , is LD50 less than 900 mg/kg?
Output: No

Task: In the record for `CCCCCCCC/C=C\CCCCCCCCNCCCN` , is LD50 less than 900 mg/kg?
Output: Yes

###

experiment: rat acute oral toxicity; details: in vivo
Overview of reported log10 LD50 across a group of molecules:
Use the decimal logarithm of LD50 (mg/kg).

CCCCCCCC/C=C\CCCCCCCC(=O)O : 4.40
CC(C)O : 3.67
C[N+](C)(C)CCCl : 2.78

Task: Find the recorded log10 LD50 belonging to `CCOP(=S)(OCC)Oc1cc(C)nc(N(CC)CC)n1` and report it.
Output: 2.15

Task: Find the recorded log10 LD50 belonging to `CCOP(=O)(O)C(N)=O` and report it.
Output: 3.32

Task: Find the recorded log10 LD50 belonging to CC1CCC(CO)CC1 (stereo not drawn) and report it.
Output: 2.85

Task: Find the recorded log10 LD50 belonging to `COc1cc(OC)nc(Oc2cccc(Oc3nc(OC)cc(OC)n3)c2C(=O)O)n1` and report it.
Output: 3.42

Task: Find the recorded log10 LD50 belonging to `COP(=S)(OC)Oc1ccc([N+](=O)[O-])cc1` and report it.
Output: 0.78

###

assay: GHS categories as the set defines them, by LD50: 1 up to 5, 2 up to 50, 3 up to 300, 4 up to 2000, 5 above 2000 mg/kg; details: rat; in vivo; po
Measure: GHS category
No unit in the answer, please; the number alone is enough.

CCN(C(=O)CCCSc1nnnn1C)C1CCCCC1 : 4
Cc1nc2n(c1/C=N/NC(=O)CN(C)C)CCS2 : 4
CC(=O)CC(=O)OCCOC(=O)CC(C)=O : 5
CCOc1nc(NC)nc(NC(=O)NS(=O)(=O)c2ccccc2C(=O)OC)n1 : 5
N#CC(CCc1ccc(Cl)cc1)(Cn1cncn1)c1ccccc1 (configuration not stated) : 5

Task: Find the recorded GHS category belonging to `CO[C@@H](c1cc(C)c(O)c(C)c1)[C@@H](C)CO` and report it.
Output: 5

Task: Find the recorded GHS category belonging to CC1(C)S[C@@H]2[C@H](NC(=O)C(N)c3ccccc3)C(=O)N2[C@H]1C(=O)OC1OC(=O)c2ccccc21 (some centres not stated) and report it.
Output: 4

Task: Find the recorded GHS category belonging to `C=CCCCCCCCC(=O)OC` and report it.
Output: 5

###

test: rat acute oral toxicity; settings: in vivo
Quick rule for you: LD50 under 800 mg/kg gets Criterion met, anything else gets Criterion not met.

Some solved cases for reference:
O=C(Nc1ccccc1)Nc1ccnc(Cl)c1 : Criterion not met
c1ccc2[nH]nnc2c1 : Criterion met
Cc1ccccc1OCC1CO1 (stereo not drawn) : Criterion not met
CCCC(=O)O : Criterion not met
c1ccc(Oc2ccccc2)cc1 : Criterion not met

Task: In the record for `CCOCCOC(C)=O` , is LD50 less than 800 mg/kg?
Output: Criterion not met

Task: In the record for `C=CC#N` , is LD50 less than 800 mg/kg?
Output: Criterion met

Task: In the record for CCCCCCCCCCC(N)CO (stereo not drawn) , is LD50 less than 800 mg/kg?
Output: Criterion met

Task: In the record for CCC(C)C=O (stereo not drawn) , is LD50 less than 800 mg/kg?
Output: Criterion not met

###

assay: GHS categories as the set defines them, by LD50: 1 up to 5, 2 up to 50, 3 up to 300, 4 up to 2000, 5 above 2000 mg/kg; conditions: rat; in vivo; po
Measure: GHS category

For orientation, consider the following solved cases.
CCC(COC(=O)c1cc(OC)c(OC)c(OC)c1)(c1ccccc1)N(C)C (stereo not given) : 5
Cc1cc(=O)nc(C(C)(C)O)[nH]1 : 5
CC(=O)NC1CCc2nc(N)sc2C1 (stereo not given) : 5
CCCCCCCCCCCCCc1cccc(O)c1C(=O)O : 4
CCCC(=NOCC(C)Oc1ccc(Cl)cc1)C1=C(O)CC(C2CCCSC2)CC1=O (stereo not given) : 5

Task: Find the recorded GHS category belonging to C=CC(C)=CCC1OC1(C)C (stereo not given) and report it.
Output: 5

Task: Find the recorded GHS category belonging to `CC(C)CCOCCC(C)C` and report it.
Output: 5

###

assay: GHS categories as the set defines them, by LD50: 1 up to 5, 2 up to 50, 3 up to 300, 4 up to 2000, 5 above 2000 mg/kg; conditions: rat; in vivo; po
Overview of reported GHS category across a group of compounds:

For orientation, consider the following solved cases.
Cc1ccc(OC(=O)Cc2ccccc2)cc1 : 5
Cn1nnnc1SCCCC(=O)c1cccs1 : 4

// below: GHS category requested for another compound
Task: Find the recorded GHS category belonging to `CCCCCCCOCCCCN1CCCCCC1=O` and report it.
Output: 5

###

Overview of reported GHS category across a group of molecules:
test: GHS categories as the set defines them, by LD50: 1 up to 5, 2 up to 50, 3 up to 300, 4 up to 2000, 5 above 2000 mg/kg; settings: rat; in vivo; po
No unit in the answer, please; the number alone is enough.

CN(C)C1C(=O)C(=C(O)NCN2CCCC2C(=O)O)C(=O)C2(O)C(=O)C3=C(O)c4c(O)cccc4C(C)(O)C3CC12 (stereo not drawn) : 5
COc1ccc2c(c1)CCN(c1ccccc1)C2c1ccc(OCc2ccccc2)cc1 (stereo not drawn) : 4
COCCCNc1nc(NC(C)C)nc(SC)n1 : 5

Task: Find the recorded GHS category belonging to `C=C(C)C(=O)OCCOCCOCCOCC` and report it.
Output: 5

Task: Find the recorded GHS category belonging to `Cc1ccc(I)cc1Cc1ccc(-c2ccc(F)cc2)s1` and report it.
Output: 5

Task: Find the recorded GHS category belonging to `Nc1c[n+](N2CCOCC2)no1` and report it.
Output: 4

Task: Find the recorded GHS category belonging to `CCCC(=O)Nc1ccc(Cc2ccccn2)c([N+](=O)[O-])c1` and report it.
Output: 4

Task: Find the recorded GHS category belonging to CC(O)CCl (stereo not drawn) and report it.
Output: 3

Task: Find the recorded GHS category belonging to `O=C(O)c1ccc(B(O)O)cc1` and report it.
Output: 5

Task: Find the recorded GHS category belonging to `C=CC(=O)OCC[N+](C)(C)Cc1ccccc1` and report it.
Output: 5
